- target_system: Serine/threonine-protein kinase BRSK2 (Homo sapiens) (UniProt Q8IWQ3)
- Sequence (whole entry): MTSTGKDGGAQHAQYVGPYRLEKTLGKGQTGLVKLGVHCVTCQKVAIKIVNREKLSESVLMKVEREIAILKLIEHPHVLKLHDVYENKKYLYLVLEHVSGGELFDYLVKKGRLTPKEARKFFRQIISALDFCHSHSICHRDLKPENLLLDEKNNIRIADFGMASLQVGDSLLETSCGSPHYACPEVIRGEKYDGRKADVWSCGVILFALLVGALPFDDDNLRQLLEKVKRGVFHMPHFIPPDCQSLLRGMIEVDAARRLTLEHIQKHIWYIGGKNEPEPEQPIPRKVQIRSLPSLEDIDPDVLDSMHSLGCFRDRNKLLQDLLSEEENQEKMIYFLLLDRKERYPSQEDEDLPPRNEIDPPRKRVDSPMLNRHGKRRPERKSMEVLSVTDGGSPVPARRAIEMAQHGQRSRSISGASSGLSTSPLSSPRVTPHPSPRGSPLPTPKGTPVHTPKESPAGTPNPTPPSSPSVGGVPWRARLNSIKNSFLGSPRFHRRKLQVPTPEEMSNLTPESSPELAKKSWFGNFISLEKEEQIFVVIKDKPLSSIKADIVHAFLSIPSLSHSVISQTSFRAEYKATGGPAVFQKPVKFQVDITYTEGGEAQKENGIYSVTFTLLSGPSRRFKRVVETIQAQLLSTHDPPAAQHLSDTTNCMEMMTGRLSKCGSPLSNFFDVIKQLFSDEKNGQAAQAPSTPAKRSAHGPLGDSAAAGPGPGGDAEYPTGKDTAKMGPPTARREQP
- test_context: at 10 µM
Rule: residual activity below 40% gives Satisfied. Equal to or above 40% gives Not satisfied.

compound: Nc1ncnc2c1c(-c1ccc(Oc3ccccc3)cc1)cn2C1CCCC1
label_class: Not satisfied
--
compound: O=C1NC(=O)c2c1c1c3ccccc3[nH]c1n1cncc21
label_class: Satisfied
--
compound: O=C1Cc2c([nH]c3ccc([N+](=O)[O-])cc23)-c2ccccc2N1
label_class: Satisfied
--
compound: O=C(c1cc2cc(O)ccc2[nH]1)c1cc2cc(O)ccc2[nH]1
label_class: Satisfied
--
compound: N#C/C(=C1/Nc2ccccc2S1)c1ccnc(NCCc2cccnc2)n1
label_class: Satisfied
--
compound: O=C(O)/C=C/c1cc(Br)c(Br)c(Br)c1Br
label_class: Not satisfied
--
compound: NC(=O)c1ccc(-c2nc(-c3ccc4c(c3)OCCO4)c(-c3ccccn3)[nH]2)cc1
label_class: Not satisfied
--
compound: O=C1Nc2ccc(Cl)cc2/C1=C/c1cc(Cl)c(O)c(Cl)c1
label_class: Not satisfied
--
compound: Nc1ncnc2[nH]nc(Nc3ccc(F)cc3)c12
label_class: Satisfied
--
compound: COc1ccc(COc2ccc(Cc3cnc(N)nc3N)cc2OC)cc1
label_class: Not satisfied

Record O=C(NC(NC(=S)Nc1ccc(F)c([N+](=O)[O-])c1)C(Cl)(Cl)Cl)C(c1ccccc1)c1ccccc1 (stereo not given) : is its residual activity strictly below 40%?
Not satisfied

Record O=S(=O)(c1cccc2cnccc12)N1CCCNCC1 : is its residual activity strictly below 40%?
Not satisfied

Record O=c1cc(N2CCOCC2)oc2c1ccc1ccccc12 : is its residual activity strictly below 40%?
Not satisfied

Record O=C1NC(=O)C(c2cn(CCCO)c3ncccc23)=C1c1cnccn1 : is its residual activity strictly below 40%?
Not satisfied

Record CN([C@@H](Cc1ccc(OS(=O)(=O)c2cccc3cnccc23)cc1)C(=O)N1CCN(c2ccccc2)CC1)S(=O)(=O)c1cccc2cnccc12 : is its residual activity strictly below 40%?
Not satisfied
